Measured values drawn from PubChem BioAssay for this set.

What NADPH fluorescence slope was measured for each of the following?
# Tgt: Voltage-gated potassium channel subunit beta-2 (Rattus norvegicus)
# Protocol Details: enhancers of rat Kvbeta2 NADPH turnover – biochemical, NADPH fluorescence, primary screen (AID 623);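 note: fluorescence intensity change per second fitted from 20 to 320 s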
# Settings: Recombinant KvBeta, NADPH fluorescence decrease slope, 10 min; at 10 µM; stronger effect = lower value
// keep it numeric: no unit symbol after the value

input: // NADPH fluorescence slope lookup, key: O=C(NC1CCCCC1)c1nc2c(nnn2Cc2ccccc2Cl)c(=O)[nH]1
output: -2.9e-05

input: // NADPH fluorescence slope lookup, key: Cc1ccc(-c2nc3cc(NC(=O)C(C)C)ccc3o2)cc1
output: -3e-05

input: // NADPH fluorescence slope lookup, key: CC1(C)CC(=O)C=C(NCCN2CCN(C(=O)Nc3ccccc3)CC2)C1
output: -4.4e-05

input: // NADPH fluorescence slope lookup, key: O=C(NCC1CCCO1)c1cc(-c2ccncc2)nc2ccc(S(=O)(=O)N3CCOCC3)cc12 (stereo not given)
output: -9.2e-05

input: // NADPH fluorescence slope lookup, key: C=CCc1ccccc1OCC(O)CN1CCN(Cc2ccc3c(c2)OCO3)CC1 (stereo not given)
output: 1.5e-05

---

What inhibition was measured for each of the following?
# Protocol Details: blockers of RIG-like receptor reporter activation – cell-based, Sendai virus stimulus, luciferase, 10K MLSCN set, TLR/RLR signaling modifier project, primary screen (AID 602276);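 note: firefly luciferase from ISG56 promoter only with Renilla not read in this screen; 0% = Sendai virus plus DMSO and 100% = medium plus DMSO without virus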
# Settings: HEK293 RL24 IRF3 luciferase reporter, at 10 µM, stronger effect = higher value
Numeric answer only, unit % assumed.

input: // inhibition lookup, key: c1ccc(-c2cn3cccnc3n2)cc1
output: -12.5

input: // inhibition lookup, key: COc1ccc(NC(=O)CC2Oc3ccccc3NC2=O)cc1 (stereo not given)
output: 4.81

input: // inhibition lookup, key: CCOC(=O)c1ccc(NC(=O)CSc2ncccn2)cc1
output: -20.7

input: // inhibition lookup, key: CC1Cc2ccccc2N1Cc1cc(=O)n2ccsc2n1 (stereo not given)
output: 1.61

input: // inhibition lookup, key: O=C(CSc1nnc(-c2cccs2)o1)NCC1CN(Cc2ccccc2)CCO1 (stereo not given)
output: -0.491

input: // inhibition lookup, key: COc1ccc(OCCOC(=O)c2cccc(-n3cnnn3)c2)cc1
output: -2.23

input: // inhibition lookup, key: O=C(COc1ccccc1)Nc1ccccc1N1CCN(c2ccccc2)CC1
output: 16.7

input: // inhibition lookup, key: CC(=O)Nc1ccc(NC(=O)Cn2cnc3c(cnn3C(C)(C)C)c2=O)cc1
output: 2.03

input: // inhibition lookup, key: COc1ccc(CCNc2oc(-c3ccco3)nc2C#N)cc1
output: -0.514

input: // inhibition lookup, key: O=C(CSc1nnc(-c2ccccc2Cl)n1Cc1ccco1)Nc1ccc2c(c1)OCCO2
output: 8.89

input: // inhibition lookup, key: CC(C)C(=O)Nc1ccc(-c2nc3cccnc3o2)cc1
output: -33.7

input: // inhibition lookup, key: O=C(c1cc(-c2cccs2)on1)N1CCc2ccccc2C1
output: 4.86

input: // inhibition lookup, key: Cc1ccc(C)c(OCC(O)CN2C(C)CCCC2C)c1 (stereo not given)
output: 13.4

input: // inhibition lookup, key: Cc1cccc(NCc2ccccc2O)c1
output: 10.1

input: // inhibition lookup, key: O=S(=O)(NC1=NCCC1)c1cccs1
output: 8.22

input: // inhibition lookup, key: CCN(CCCNC(=O)C1CCCN(S(=O)(=O)c2cnc[nH]2)C1)c1ccccc1 (stereo not given)
output: 5.83

input: // inhibition lookup, key: NC(=O)CSc1nnc(-c2ccc(O)cc2)n1Cc1ccco1
output: 11.3

input: // inhibition lookup, key: CCOC(=O)C1CCCN(C(=O)c2cccs2)C1 (stereo not given)
output: 12.8

input: // inhibition lookup, key: Cc1ccc(-n2c(SCC3CCCCO3)nnc2-c2ccco2)cc1 (stereo not given)
output: 20.5

input: // inhibition lookup, key: COc1ccccc1OCc1ccc(C(=O)NC(C)(C)C)o1
output: -16.1

input: // inhibition lookup, key: O=C(Cc1c[nH]c2ccccc12)N1CCc2ccccc21
output: -4.15

input: // inhibition lookup, key: CCCN(S(=O)(=O)c1ccc(OCC)cc1)S(=O)(=O)c1cccs1
output: -4.95

input: // inhibition lookup, key: COc1ccccc1N1CCN(c2nc3ccccc3nc2C(C#N)C(=O)OC(C)C)CC1 (stereo not given)
output: -13.1

input: // inhibition lookup, key: CCNc1ccc2c(Cl)cc(=O)oc2c1
output: 4.11

input: // inhibition lookup, key: O=C1c2ccccc2C(Nc2ccc3c(c2)OCCO3)N1Cc1ccco1 (stereo not given)
output: 12.3
